# TARGET OR TEST SYSTEM: T1, 4H1878-AA
# T1 chain: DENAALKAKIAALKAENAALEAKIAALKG
# TEST NAME: two-hybrid library CCmax;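 note: natural log of median RNA to DNA barcode read ratio; higher means stronger binding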
# CONDITIONS USED: mean of both orientations
REPORTED PROPERTY: interaction score

A selection of reference data follows.
binder="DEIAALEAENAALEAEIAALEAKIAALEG [4H133-AA]" reported_property="interaction score" result_number=1.23
binder="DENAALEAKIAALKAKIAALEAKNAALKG [4H1384-AA]" reported_property="interaction score" result_number=-1.08

(I) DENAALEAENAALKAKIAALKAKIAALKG [4H1262-AA]
(II) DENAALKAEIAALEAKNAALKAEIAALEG [4H1593-AA]
Pick one, I or II : lowest reported interaction score. Field: selected label. Fill in the label of the entry you choose.
I
(I: -1.09, II: 2.3)
